- measured-on: full length human FXR (Homo sapiens)
- Construct: expressed in transfected cells
- experiment: transactivation of FXR mediated transcription in a HEK293 reporter cell line (luciferase)
- Type: cell-based
- condition-summary: HEK293, read-out: EFFIC AVG (average efficacy, % activity relative to CDCA control agonist), relative to CDCA control agonist; Tables 3-5
Recorded measurements of Emax, one per entry
Number only, in %; omit the unit.

>  <compound>
O=C(O)C1CCC(CNc2nc(-c3cccc(O)c3)c(Cc3c(Cl)cccc3Cl)s2)CC1 (stereo not drawn) [LN0000006365]

>  <recorded-metric>
Emax

>  <readout-units>
%

>  <meas-value>
92

$$$$

Dear colleague, please send me the reported Emax for O=C(O)C1CCC(CNc2nc(-c3ccccc3O)c(Cc3c(F)cccc3F)s2)CC1 (stereo not drawn) [LN0000006316] when you can.
110

Give the reported Emax for this compound. O=C(O)c1ccc(CNc2nc(-c3ccccc3O)c(Cc3cccc(F)c3F)s2)cc1 [LN0000006323]
86

---

- measured-on: full length human FXR (Homo sapiens, UniProt Q96RI1)
- Construct: expressed in transfected cells
- Sequence (Q96RI1 1-472 isoform Q96RI1-2): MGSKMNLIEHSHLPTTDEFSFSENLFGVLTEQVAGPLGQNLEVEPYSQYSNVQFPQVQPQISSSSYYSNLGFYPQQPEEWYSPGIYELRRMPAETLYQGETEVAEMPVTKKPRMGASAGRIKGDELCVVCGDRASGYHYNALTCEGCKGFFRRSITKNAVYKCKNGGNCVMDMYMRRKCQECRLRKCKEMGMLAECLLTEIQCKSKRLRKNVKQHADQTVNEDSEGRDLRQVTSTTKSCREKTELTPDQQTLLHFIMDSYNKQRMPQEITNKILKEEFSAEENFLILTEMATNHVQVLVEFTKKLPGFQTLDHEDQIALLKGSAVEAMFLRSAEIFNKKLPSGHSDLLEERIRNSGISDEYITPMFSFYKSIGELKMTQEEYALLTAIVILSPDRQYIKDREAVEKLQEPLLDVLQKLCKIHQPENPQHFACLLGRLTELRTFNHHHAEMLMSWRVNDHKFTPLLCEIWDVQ
- Sequence (P19793 1-462 partner): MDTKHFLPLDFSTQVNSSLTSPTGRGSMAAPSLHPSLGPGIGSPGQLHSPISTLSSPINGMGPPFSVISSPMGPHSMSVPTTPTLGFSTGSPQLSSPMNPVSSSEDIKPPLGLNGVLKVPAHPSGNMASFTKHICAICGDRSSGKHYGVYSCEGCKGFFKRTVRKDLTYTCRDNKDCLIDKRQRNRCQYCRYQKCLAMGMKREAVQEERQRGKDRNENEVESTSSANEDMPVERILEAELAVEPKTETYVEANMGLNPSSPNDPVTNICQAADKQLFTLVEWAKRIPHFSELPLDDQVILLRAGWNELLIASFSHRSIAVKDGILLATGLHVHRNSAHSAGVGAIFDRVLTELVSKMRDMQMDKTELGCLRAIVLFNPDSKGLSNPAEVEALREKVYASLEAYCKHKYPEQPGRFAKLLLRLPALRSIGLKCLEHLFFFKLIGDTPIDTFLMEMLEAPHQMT
- experiment: transactivation of FXR mediated transcription in a HEK293 reporter cell line (luciferase)
- Format: cell-based
- condition-summary: HEK293 FXR reporter cell line; Tables 3-5
recorded-metric: pEC50
Please report pEC50 as the negative decimal logarithm of the molar concentration, giving only the number.

>  <molecule>
O=C(O)c1ccc(CNc2nc(-c3cccc(O)c3)c(Cc3c(F)cccc3F)s2)cc1

>  <recorded-metric>
pEC50

>  <meas-value>
5.39

$$$$

Next item in the queue.
// fetch pEC50 given entry O=C(O)C1CCC(CNc2nc(-c3cccc(O)c3)c(Cc3c(F)cccc3F)s2)CC1 (centres unmarked)
5.62
